# inhibition at 1 µM per record follows
- test_system: SMARCA4-HiBiT HeLa cells (protein which is expressed from the SMARCA4 gene) (Homo sapiens, UniProt P51532)
- Construct: protein which is expressed from the SMARCA2 and SMARCA4 genes; host or cells: HeLa (SMARCA4-HiBiT engineered line)
- Sequence (P51532 whole entry): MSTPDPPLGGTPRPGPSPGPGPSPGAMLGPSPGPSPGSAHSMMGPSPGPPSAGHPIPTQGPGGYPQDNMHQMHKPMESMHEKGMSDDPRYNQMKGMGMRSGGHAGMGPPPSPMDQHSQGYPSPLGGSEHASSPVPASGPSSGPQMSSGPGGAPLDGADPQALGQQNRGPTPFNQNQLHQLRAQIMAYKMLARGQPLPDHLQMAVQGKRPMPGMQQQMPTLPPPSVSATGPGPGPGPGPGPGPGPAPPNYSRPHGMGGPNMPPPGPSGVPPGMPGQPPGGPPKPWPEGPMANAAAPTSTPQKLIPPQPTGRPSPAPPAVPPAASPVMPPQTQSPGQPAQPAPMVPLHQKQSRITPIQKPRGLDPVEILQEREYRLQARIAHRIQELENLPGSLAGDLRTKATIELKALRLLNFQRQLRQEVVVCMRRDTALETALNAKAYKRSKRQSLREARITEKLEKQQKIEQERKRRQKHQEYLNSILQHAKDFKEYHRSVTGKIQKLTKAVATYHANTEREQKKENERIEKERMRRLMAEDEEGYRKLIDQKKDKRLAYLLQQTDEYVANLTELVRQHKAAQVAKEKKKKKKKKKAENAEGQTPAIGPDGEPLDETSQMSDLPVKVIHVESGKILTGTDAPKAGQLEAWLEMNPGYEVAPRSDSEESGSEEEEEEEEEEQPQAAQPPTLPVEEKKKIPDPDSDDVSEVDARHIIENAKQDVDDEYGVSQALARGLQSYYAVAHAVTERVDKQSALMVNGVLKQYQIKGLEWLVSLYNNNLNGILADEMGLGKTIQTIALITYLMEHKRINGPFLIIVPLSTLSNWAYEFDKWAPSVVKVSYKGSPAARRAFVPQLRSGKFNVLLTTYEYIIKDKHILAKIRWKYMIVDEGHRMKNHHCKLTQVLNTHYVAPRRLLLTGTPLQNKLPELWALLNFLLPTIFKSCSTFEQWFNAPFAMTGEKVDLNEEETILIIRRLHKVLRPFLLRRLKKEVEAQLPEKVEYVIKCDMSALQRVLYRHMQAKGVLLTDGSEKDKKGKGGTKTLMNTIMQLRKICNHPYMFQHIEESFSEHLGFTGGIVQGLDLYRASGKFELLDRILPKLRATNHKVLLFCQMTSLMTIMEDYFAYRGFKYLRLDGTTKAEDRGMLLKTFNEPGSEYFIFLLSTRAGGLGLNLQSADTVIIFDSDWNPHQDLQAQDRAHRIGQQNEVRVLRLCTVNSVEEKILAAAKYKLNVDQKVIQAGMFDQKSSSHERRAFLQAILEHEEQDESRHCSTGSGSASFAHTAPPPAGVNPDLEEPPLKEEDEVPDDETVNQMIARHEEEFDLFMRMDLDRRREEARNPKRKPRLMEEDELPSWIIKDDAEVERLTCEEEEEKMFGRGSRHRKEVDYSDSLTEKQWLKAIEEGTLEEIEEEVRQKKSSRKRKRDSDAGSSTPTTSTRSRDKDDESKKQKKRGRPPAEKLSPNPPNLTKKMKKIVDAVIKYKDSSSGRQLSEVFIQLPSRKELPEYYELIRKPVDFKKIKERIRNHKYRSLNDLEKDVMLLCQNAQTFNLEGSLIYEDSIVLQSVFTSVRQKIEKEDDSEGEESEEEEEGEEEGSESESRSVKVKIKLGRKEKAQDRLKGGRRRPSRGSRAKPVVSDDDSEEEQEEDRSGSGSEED
- procedure_summary: SMARCA4 degradation assay (HiBiT-fusion HeLa cell line, 24 h, luminescence)
- Format: cell-based
- experimental_parameters: 1 μM

C[C@@H]1CCN(c2cc(-c3ccccc3O)nnc2N)CCN1c1ccnc(C#CCn2ccnc2)c1: > 70%
C[C@@H]1CCN(c2cc(-c3ccccc3O)nnc2N)CCN1c1ccnc(C#CCN(C)C)c1C#N: 30 to 70%
N#Cc1ccc(N2C3CCC2CN(c2cnnc(-c4ccccc4O)c2)C3)nc1C#CCN1CC[C@H](F)C1: < 30%

Fill in inhibition at 1 µM for record `CN(C)CC#Cc1cc(N2C[C@@H]3CN(c4cc(-c5ccccc5O)nnc4N)C[C@@H]3C2)ccn1`
30 to 70%

----------
- test_system: SMARCA4-HiBiT HeLa cells (protein which is expressed from the SMARCA4 gene) (Homo sapiens)
- Construct: protein which is expressed from the SMARCA2 and SMARCA4 genes; host or cells: HeLa (SMARCA4-HiBiT engineered line)
- procedure_summary: SMARCA4 degradation assay (HiBiT-fusion HeLa cell line, 24 h, luminescence)
- Format: cell-based
- experimental_parameters: @ 1 μM
# inhibition at 1 µM per record follows

// fetch inhibition at 1 µM given entry C[C@H]1CN(c2ccnc(C#CCn3ccnc3)n2)CCN1c1cc(-c2ccccc2O)nnc1N [Compound P-293]
< 30%

Consider the molecule CCC1CN(c2ccnc(C#CCNC(=O)c3cc4ncccn4n3)n2)CCN1c1cc(-c2ccccc2O)nnc1N (stereo not shown) [Compound P-51] and give its recorded inhibition at 1 µM.
30 to 70%

Look up and state reported inhibition at 1 µM for Cc1cc(C)n2ncc(C(=O)NCC#Cc3nccc(N4CCN(c5cc(-c6ccccc6O)nnc5N)CC4)n3)c2n1 [Compound P-70]
30 to 70%

----------
- test_system: SMARCA4-HiBiT HeLa cells (protein which is expressed from the SMARCA4 gene) (Homo sapiens)
- Construct: protein which is expressed from the SMARCA2 and SMARCA4 genes; host or cells: HeLa (SMARCA4-HiBiT engineered line)
- procedure_summary: SMARCA4 degradation assay (HiBiT-fusion HeLa cell line, 24 h, luminescence)
- Format: cell-based
- Text: SMARCA2 and SMARCA4 Degradation Assay Degradation of protein which is expressed from the SMARCA2 and SMARCA4 genes was monitored using engineered HiBiT-fusion HeLa cell lines from Promega. […] 24-hours post-treatment, protein levels were quantified with the addition of HiBiT lytic buffer, LgBiT protein, and HiBiT substrate, according to manufacturer's specifications. […]
DC50 values by entry

Nc1nnc(-c2ccccc2O)cc1N1CCCN(c2ccnc(C#CCN3CCOC3=O)n2)CC1: 0.05 to 0.5 µM
Nc1nnc(-c2ccccc2O)cc1N1CCCN(c2ccnc(C#CCO)n2)CC1: 0.05 to 0.5 µM
COC(=O)NCC#Cc1nccc(N2CCCN(c3cc(-c4ccccc4O)nnc3N)CC2)n1: 0.05 to 0.5 µM
Cc1nn2ccn(CC#Cc3nccc(N4CCN(c5cc(-c6ccccc6O)nnc5N)CC4)n3)c(=O)c2c1C: < 0.05 µM
CC(C)(C)OC(=O)NCC#Cc1cccc(N2CCCN(c3cc(-c4ccccc4O)nnc3N)CC2)n1: > 5 µM
Nc1nnc(-c2ccccc2O)cc1N1CC2CCN(c3ccnc(C#CCNC(=O)c4cc5ncccn5n4)n3)C2C1 (stereo not shown): 0.05 to 0.5 µM

Let's switch to this molecule now.
Could you please provide reported DC50 for `C[C@@H]1CCN(c2cc(-c3ccccc3O)nnc2N)CCN1c1ccnc(C#CC2CN(CC(F)F)C2)n1` ? Thanks!
0.05 to 0.5 µM

----------
- test_system: SMARCA2-HiBiT HeLa cells (protein which is expressed from the SMARCA2 gene) (Homo sapiens, UniProt P51531)
- Construct: protein which is expressed from the SMARCA2 and SMARCA4 genes; host or cells: HeLa (SMARCA2-HiBiT engineered line)
- Sequence (P51531 whole entry): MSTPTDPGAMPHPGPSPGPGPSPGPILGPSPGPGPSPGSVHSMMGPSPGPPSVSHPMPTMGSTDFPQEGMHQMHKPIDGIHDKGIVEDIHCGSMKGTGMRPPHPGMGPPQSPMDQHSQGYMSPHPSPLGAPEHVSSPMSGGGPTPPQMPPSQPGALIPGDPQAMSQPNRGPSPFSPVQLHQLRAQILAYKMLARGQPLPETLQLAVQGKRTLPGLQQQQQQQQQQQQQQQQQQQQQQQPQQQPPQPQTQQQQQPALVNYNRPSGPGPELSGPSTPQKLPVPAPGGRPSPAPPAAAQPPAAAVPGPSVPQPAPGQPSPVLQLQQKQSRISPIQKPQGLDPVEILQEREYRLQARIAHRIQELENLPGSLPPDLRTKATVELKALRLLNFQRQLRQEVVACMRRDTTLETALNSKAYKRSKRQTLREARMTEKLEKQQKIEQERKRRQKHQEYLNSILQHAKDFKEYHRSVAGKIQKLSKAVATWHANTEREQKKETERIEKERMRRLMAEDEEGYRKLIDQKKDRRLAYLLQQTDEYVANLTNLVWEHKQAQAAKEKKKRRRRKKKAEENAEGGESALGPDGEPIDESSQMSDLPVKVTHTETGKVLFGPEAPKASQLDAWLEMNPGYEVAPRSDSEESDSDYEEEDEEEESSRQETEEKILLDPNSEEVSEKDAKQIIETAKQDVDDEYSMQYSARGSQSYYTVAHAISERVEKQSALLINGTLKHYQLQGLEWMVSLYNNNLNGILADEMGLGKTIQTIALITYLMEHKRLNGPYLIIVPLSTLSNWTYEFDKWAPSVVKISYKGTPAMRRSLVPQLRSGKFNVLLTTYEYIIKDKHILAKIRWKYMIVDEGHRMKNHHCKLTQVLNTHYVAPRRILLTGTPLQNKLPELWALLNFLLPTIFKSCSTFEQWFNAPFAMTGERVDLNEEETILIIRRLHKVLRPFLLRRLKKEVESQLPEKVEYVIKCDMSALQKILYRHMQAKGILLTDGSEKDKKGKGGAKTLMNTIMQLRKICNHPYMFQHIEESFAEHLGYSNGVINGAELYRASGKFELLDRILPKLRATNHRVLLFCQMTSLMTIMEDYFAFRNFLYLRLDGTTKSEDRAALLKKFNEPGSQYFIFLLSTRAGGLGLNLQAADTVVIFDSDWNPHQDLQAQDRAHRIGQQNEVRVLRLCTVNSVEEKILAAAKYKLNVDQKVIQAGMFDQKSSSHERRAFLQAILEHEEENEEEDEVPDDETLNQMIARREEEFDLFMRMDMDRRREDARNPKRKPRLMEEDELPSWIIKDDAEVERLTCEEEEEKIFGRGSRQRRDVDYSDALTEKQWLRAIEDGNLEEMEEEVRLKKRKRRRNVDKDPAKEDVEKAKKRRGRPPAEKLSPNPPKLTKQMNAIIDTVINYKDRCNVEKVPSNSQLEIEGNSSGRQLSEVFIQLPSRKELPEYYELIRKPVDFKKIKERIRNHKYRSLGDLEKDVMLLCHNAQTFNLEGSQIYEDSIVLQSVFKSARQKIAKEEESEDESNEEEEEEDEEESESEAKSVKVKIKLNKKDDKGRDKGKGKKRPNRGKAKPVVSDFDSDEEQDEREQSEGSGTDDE
- procedure_summary: SMARCA2 degradation assay (HiBiT-fusion HeLa cell line, 24 h, luminescence)
- Format: cell-based
readout_kind: DC50

Identify measured DC50 associated with `Nc1nnc(-c2ccccc2O)cc1N1C[C@@H]2C[C@H]1CN2c1ccnc(C#CCNC(=O)c2cc3ncccn3n2)n1`
500 to 5000 nM

----------
- test_system: SMARCA2-HiBiT HeLa cells (protein which is expressed from the SMARCA2 gene) (Homo sapiens)
- Construct: protein which is expressed from the SMARCA2 and SMARCA4 genes; host or cells: HeLa (SMARCA2-HiBiT engineered line)
- procedure_summary: SMARCA2 degradation assay (HiBiT-fusion HeLa cell line, 24 h, luminescence)
- Format: cell-based
DC50 by entry:

Cc1cc(C)n2ncc(C(=O)NCC#Cc3nccc(N4CCN(c5cc(-c6ccccc6O)nnc5N)CC4)n3)c2n1: 50 to 500 nM

Identify DC50 associated with the compound Nc1nnc(-c2ccccc2O)cc1N1CCN(c2ccnc(C#CCNC(=O)C3COc4ccccc4O3)n2)CC1 (stereo not shown)
50 to 500 nM

Please give the documented DC50 of CC(C#Cc1ncc(F)c(N2CCN(c3cc(-c4ccccc4O)nnc3N)CC[C@H]2C)n1)N(C)C (stereo partly shown)
50 to 500 nM

Provide one value: measured DC50 of Nc1nnc(-c2ccccc2O)cc1N1CCCN(c2ccnc(C#CCN3C4CCC3CC(O)C4)n2)CC1 (stereo not shown)
50 to 500 nM

----------
- test_system: SMARCA4-HiBiT HeLa cells (protein which is expressed from the SMARCA4 gene) (Homo sapiens)
- Construct: protein which is expressed from the SMARCA2 and SMARCA4 genes; host or cells: HeLa (SMARCA4-HiBiT engineered line)
- procedure_summary: SMARCA4 degradation assay (HiBiT-fusion HeLa cell line, 24 h, luminescence)
- Type: cell-based
Measured DC50, listed per entry.

CN(C)CC#Cc1nc(N2CCCN(c3cc(-c4ccccc4O)nnc3N)CC2)ccc1C#N: 50 to 500 nM

Answer briefly: DC50 recorded on SMARCA4-HiBiT HeLa cells (protein which is expressed from the SMARCA4 gene) (Homo sapiens) for `Cc1nn2ccn(CC#Cc3nccc(N4CCCN(c5cc(-c6ccccc6O)nnc5N)CC4)n3)c(=O)c2c1C`
50 to 500 nM

Would you please give the reported DC50 of `Cn1ccc(OCC#Cc2nccc(N3CCCN(c4cc(-c5ccccc5O)nnc4N)CC3)n2)n1` with SMARCA4-HiBiT HeLa cells (protein which is expressed from the SMARCA4 gene) (Homo sapiens)?
50 to 500 nM

Fetch value of DC50 on SMARCA4-HiBiT HeLa cells (protein which is expressed from the SMARCA4 gene) (Homo sapiens) for `COCC#Cc1nc(N2CCN(c3cc(-c4ccccc4O)nnc3N)CC[C@H]2C)ccc1C#N` .
> 5000 nM

----------
Examples of compounds with documented DC50 follow.
- test_system: SMARCA2-HiBiT HeLa cells (protein which is expressed from the SMARCA2 gene) (Homo sapiens, UniProt P51531)
- Construct: protein which is expressed from the SMARCA2 and SMARCA4 genes; host or cells: HeLa (SMARCA2-HiBiT engineered line)
- procedure_summary: SMARCA2 degradation assay (HiBiT-fusion HeLa cell line, 24 h, luminescence)
- Assay type: cell-based

Completed entries (count: 6):
C[C@@H]1CCN(c2cc(-c3ccccc3O)nnc2N)CCN1c1cc(C#CCN2CCCCC2)ncc1F: 0.05 to 0.5 µM
C[C@@H]1CCN(c2cc(-c3ccccc3O)nnc2N)CCN1c1ccnc(C#CC2CC(F)(F)C2)c1: 0.05 to 0.5 µM
CC(C)c1cc(C(C)C)n(CC#Cc2nccc(N3CCCN(c4cc(-c5ccccc5O)nnc4N)CC3)n2)n1: 0.05 to 0.5 µM
CN(C)CC#Cc1cc(N2C3CCC2CN(c2cc(-c4ccccc4O)nnc2N)CC3)ccn1 (centres unmarked): < 0.05 µM
Nc1nnc(-c2ccccc2O)cc1N1CCC2(CCN(c3ccnc(C#CCNC(=O)c4cc5ncccn5n4)n3)CC2)C1: 0.05 to 0.5 µM
C[C@@H]1CCN(c2cc(-c3ccccc3O)nnc2N)CCN1c1ccnc(C#CCN2CC3CC2C3)c1: 0.05 to 0.5 µM

Report DC50, nothing else, for this compound: CC(C)(C)OC(=O)NCC#Cc1nccc(N2CCC3CCC(C2)N3c2cc(-c3ccccc3O)nnc2N)n1 (centres unmarked)
0.05 to 0.5 µM

Please give the documented DC50 of `C[C@@H]1CCN(c2cc(-c3ccccc3O)nnc2N)CCN1c1ccnc(C#CCn2ccnc2)n1`
0.05 to 0.5 µM

Give DC50 for the following compound: `CC(C)(C)OC(=O)NC1CCN(CC#Cc2nccc(N3CCCN(c4cc(-c5ccccc5O)nnc4N)CC3)n2)CC1`
0.05 to 0.5 µM

Let me know recorded DC50 for CC1CN(c2cc(-c3ccccc3O)nnc2N)CCN1c1ccnc(C#CCNC(=O)c2cc3ncccn3n2)n1 (stereo in doubt) , thanks.
0.05 to 0.5 µM

# return recorded DC50 for input `C[C@@H]1CCN(c2cc(-c3ccccc3O)nnc2N)CCN1c1ccnc(C#CCN(C)C)c1`
< 0.05 µM

Consider the compound `CC(C)(C)OC(=O)N1Cc2cn(CC#Cc3nccc(N4CCCN(c5cc(-c6ccccc6O)nnc5N)CC4)n3)nc2C1` and give its recorded DC50.
0.05 to 0.5 µM

Let me know recorded DC50 for `CNCC#Cc1nccc(N2CCN(c3cc(-c4ccccc4O)nnc3N)CC[C@H]2C)n1` , thanks.
0.05 to 0.5 µM

Give the reported DC50 for this compound. `C[C@@H]1CCN(c2cc(-c3ccccc3O)nnc2N)CCN1c1ccnc(C#CCN2CC3CC2(C)C3)n1`
0.05 to 0.5 µM

Let me know recorded DC50 for `Nc1nnc(-c2ccccc2O)cc1N1CCCN(c2ccnc(C#CCN[C@H]3CCOC3)n2)CC1` , thanks.
0.05 to 0.5 µM

Tell me DC50 reported for `Nc1nnc(-c2ccccc2O)cc1N1C[C@H]2CN(c3ccnc(C#CCN4CC(F)(F)C4)n3)C[C@H]2C1`
< 0.05 µM

For `Nc1nnc(-c2ccccc2O)cc1N1CCC2(CCN(c3ccnc(C#CCNC(=O)c4cc5ncccn5n4)n3)CC2)CC1` , write its DC50.
0.05 to 0.5 µM
